Where these numbers come from: ChEMBL document CHEMBL1145455

# Tested on: A549
# Assay Method Text: Cytotoxicity against human A549 cells after 48 hrs
# Assay type: functional, cell-based
# Measurement Context: A549, 48 h
Readout Name: IC50 (µM)
Answer in µM, number only, no unit symbol.

The following compounds have reported results that may help.
| Compound | Target Or System | Measure Unit | IC50 |
| --- | --- | --- | --- |
| C=C1C(=O)O[C@@H]2C[C@@]1(C)OC[C@H]2C1CC[C@H]2[C@@H]3C[C@H]4O[C@]45C[C@H](O)CC(=O)C5(C)[C@H]3CCC12C (stereo partly specified) | A549 | µM | 1.7 |
| C=C1C(=O)O[C@@H]2C[C@@]1(C)OC[C@H]2C1CCC2C3C[C@H]4O[C@]45CC=CC(=O)C5(C)C3C[C@@H](O)C21C (stereo partly specified) [WITHAMETELIN I] | A549 | µM | 1.2 |

Moving on to another compound below.
Query string: // query IC50 value for entry C=C1C(=O)O[C@@H]2C[C@@]1(C)OC[C@H]2C1CCC2C3C[C@@H](O)C4=CC=CC(=O)C4(C)C3C[C@@H](O)C21C (stereo partly specified) [WITHAMETELIN K]
Result string: 3.5

====

# Test system: A549
# Assay Method Text: Cytotoxicity against human A549 cells after 48 hrs
# Type: functional, cell-based
# Measurement Context: A549, 48 h
List of pIC50 values.
Reminder that pIC50 is minus the log10 of a molar concentration.

| Molecule | pIC50 |
| --- | --- |
| C=C1C(=O)O[C@@H]2C[C@]1(C)OC[C@H]2[C@H]1CC[C@H]2[C@@H]3CC=C4CC=CC(=O)[C@]4(C)[C@H]3C[C@@H](O)[C@]12C [WITHAMETELIN L] | 5.70 |

Moving on to another molecule below.
Query string: // query pIC50 value for entry COc1cccc2c1C(=O)c1c(O)c3c(c(O)c1C2=O)C[C@@](O)(C(=O)CO)C[C@@H]3O[C@H]1C[C@H](N)[C@H](O)[C@H](C)O1 [DOXORUBICIN]
Result string: 6.12

====

# Tested on: BGC-823
# Assay Method Text: Cytotoxicity against human BGC823 cells after 48 hrs
# Format: functional, cell-based
# Measurement Context: BGC-823, 48 h
Readout Name: pIC50
Reminder that pIC50 is minus the log10 of a molar concentration.

| Compound | Target Or System | pIC50 |
| --- | --- | --- |
| C=C1C(=O)O[C@@H]2C[C@@]1(C)OC[C@H]2C1CCC2C3C[C@@H](O)[C@@]4(O)CC=CC(=O)C4(C)C3C[C@@H](O)C21C (stereo not given in full) | BGC-823 | 5.28 |

Query string: // query pIC50 value for entry C=C1C(=O)O[C@@H]2C[C@@]1(C)OC[C@H]2C1CC[C@H]2[C@@H]3C[C@H]4O[C@]45C[C@H](O)CC(=O)C5(C)[C@H]3CCC12C (stereo not given in full)
Result string: 6.00

====

List of IC50 values.
# Tested on: BGC-823
# Assay Method Text: Cytotoxicity against human BGC823 cells after 48 hrs
# Type: functional, cell-based
# Measurement Context: BGC-823, 48 h

The following molecules have reported results that may help.
| Molecule | IC50 |
| --- | --- |
| C=C1C(=O)O[C@@H]2C[C@@]1(C)OC[C@H]2C1CCC2C3C[C@@H](O)C4=CC=CC(=O)C4(C)C3C[C@@H](O)C21C (stereo partly specified) [WITHAMETELIN K] | 1900 nM |
| C=C1C(=O)O[C@@H]2C[C@]1(C)OC[C@H]2[C@H]1CC[C@H]2[C@@H]3CC=C4CC=CC(=O)[C@]4(C)[C@H]3C[C@@H](O)[C@]12C [WITHAMETELIN L] | 1600 nM |
| C=C1C(=O)O[C@@H]2C[C@@]1(C)OC[C@H]2C1CCC2C3CC=C4C=CCC(=O)C4(C)C3C[C@@H](O)C21C (stereo partly specified) [WITHAMETELIN M] | > 10000 nM |

Query string: // query IC50 value for entry CC1=C(CO[C@@H]2O[C@H](CO)[C@@H](O)[C@H](O)[C@H]2O)C(=O)O[C@@H]([C@@H](CO)C2CCC3C4C[C@@H](O)[C@@]5(O)CC=CC(=O)C5(C)C4CCC32C)C1 (stereo partly specified) [WITHMETELIN P]
Result string: > 10000 nM

Query string: // query IC50 value for entry COc1cccc2c1C(=O)c1c(O)c3c(c(O)c1C2=O)C[C@@](O)(C(=O)CO)C[C@@H]3O[C@H]1C[C@H](N)[C@H](O)[C@H](C)O1 [DOXORUBICIN]
Result string: 350 nM

Query string: // query IC50 value for entry C=C1C(=O)O[C@@H]2C[C@@]1(C)OC[C@H]2C1CCC2C3C[C@H]4O[C@]45CC=CC(=O)C5(C)C3C[C@@H](O)C21C (stereo partly specified) [WITHAMETELIN I]
Result string: 1300 nM
